# assaySystem: Dipeptidyl peptidase 1 (Mus musculus)
property: Ki (µM)

>  <compound>
NCC(=O)NC(Cc1ccccc1)P(=O)(O)CCC(=O)O (stereo not given)

>  <Ki / µM>
429

$$$$

1 = COC(=O)CCP(=O)(O)C(CCc1ccccc1)NC(=O)CN (stereo not given)
2 = CC(C)CC(NC(=O)CN)P(=O)(O)CCC(=O)O (stereo not given)
3 = COC(=O)CCP(=O)(O)C(Cc1ccccc1)NC(=O)CN (stereo not given)
4 = COC(=O)CCP(=O)(O)C(NC(=O)CN)c1ccccc1 (stereo not given)
Query: Exam item: list the entries in increasing order of Ki. List the labels in the requested order.
Response: 2, 4, 1, 3
